Assay: in vivo
Conditions: male, dog, iv
measurement.kind: MRT

| structure.smiles | recorded.measurement |
| --- | --- |
| NC[C@H]1CN(c2cnc(N3CCS(=O)(=O)CC3)c(F)c2)C(=O)O1 | 1.3 h |
| NC[C@H]1CN(c2cc(F)c(N3CCOCC3)c(F)c2)C(=O)O1 | 1.3 h |
| COC(=O)NC[C@H]1CN(c2cc(F)c(N3CCS(=O)(=O)CC3)c(F)c2)C(=O)O1 | 12.6 h |

====

Experiment: in vivo
Conditions: male, rat, iv

| compound | clearance (L/h/kg) |
| --- | --- |
| NC[C@H]1CN(c2cnc(N3CCS(=O)(=O)CC3)c(F)c2)C(=O)O1 [Example 48 from WO2017/070024] | 5.1 |
| COC(=O)NC[C@H]1CN(c2cc(F)c(N3CCS(=O)(=O)CC3)c(F)c2)C(=O)O1 [Example 1] | 0.51 |
| NC[C@H]1CN(c2cc(F)c(N3CCOCC3)c(F)c2)C(=O)O1 [Example 59 from WO2017/070024] | 2.58 |
